The reported numbers originate from ChEMBL document CHEMBL4138177.

Tested on: MRC5
Assay: Cytotoxicity against human MRC5 cells up to 350 uM after 72 hrs by Alamar blue staining-based spectrophotometric analysis
Format: cell-based
Settings: mrc5, 72 h

| Smiles record | Activity |
| --- | --- |
| N=C(N)NCCNC(=O)c1cccc(-c2cccc(NC(=O)[C@@H](N)Cc3c[nH]c4ccccc34)c2)c1 | Non-Toxic |
| COC(=O)[C@H](CCCNC(=N)N)NC(=O)c1cccc(-c2cccc(NC(=O)[C@H](Cc3c[nH]c4ccccc34)NC(=O)[C@@H](N)Cc3ccccc3)c2)c1 | Non-Toxic |
| N=C(N)NCCC[C@H](NC(=O)c1cccc(-c2cccc(NC(=O)[C@H](Cc3c[nH]c4ccccc34)NC(=O)[C@@H](N)Cc3ccccc3)c2)c1)C(=O)NCCNC(=N)N | Non-Toxic |

----------
System: Lipid bilayer
Experiment: Binding affinity to zwitterionic tethered bilayer lipid membranes assessed as increase in membrane conduction response by electrochemical impedance spectroscopic analysis
Assay metric: Activity

| Smiles record | Assay metric | Obs value |
| --- | --- | --- |
| COC(=O)[C@H](CCCCN)NC(=O)c1cccc(-c2cccc(NC(=O)[C@H](Cc3c[nH]c4ccccc34)NC(=O)[C@@H](N)Cc3ccccc3)c2)c1 | Activity | Dose-dependent effect |
| NCCCC[C@H](NC(=O)c1cccc(-c2cccc(NC(=O)[C@H](Cc3c[nH]c4ccccc34)NC(=O)[C@@H](N)Cc3ccccc3)c2)c1)C(=O)NCCN | Activity | Dose-dependent effect |
| COC(=O)[C@H](CCCNC(=N)N)NC(=O)c1cccc(-c2cccc(NC(=O)[C@H](Cc3c[nH]c4ccccc34)NC(=O)[C@@H](N)Cc3ccccc3)c2)c1 | Activity | Dose-dependent effect |
| N=C(N)NCCNC(=O)c1cccc(-c2cccc(NC(=O)[C@H](Cc3c[nH]c4ccccc34)NC(=O)[C@@H](N)Cc3ccccc3)c2)c1 | Activity | Dose-dependent effect |
